Origin of values: paper doi:10.1101/2022.12.19.520966v1

# TARGET_OR_TEST_SYSTEM: T1R2/T1R3 (human sweet taste receptor) (Homo sapiens, UniProt Q7RTX0+Q8TE23, Q8TE23:R317G/Q8TE23:I486V)
# Sequence (Q8TE23 20-839 R317G/I486V): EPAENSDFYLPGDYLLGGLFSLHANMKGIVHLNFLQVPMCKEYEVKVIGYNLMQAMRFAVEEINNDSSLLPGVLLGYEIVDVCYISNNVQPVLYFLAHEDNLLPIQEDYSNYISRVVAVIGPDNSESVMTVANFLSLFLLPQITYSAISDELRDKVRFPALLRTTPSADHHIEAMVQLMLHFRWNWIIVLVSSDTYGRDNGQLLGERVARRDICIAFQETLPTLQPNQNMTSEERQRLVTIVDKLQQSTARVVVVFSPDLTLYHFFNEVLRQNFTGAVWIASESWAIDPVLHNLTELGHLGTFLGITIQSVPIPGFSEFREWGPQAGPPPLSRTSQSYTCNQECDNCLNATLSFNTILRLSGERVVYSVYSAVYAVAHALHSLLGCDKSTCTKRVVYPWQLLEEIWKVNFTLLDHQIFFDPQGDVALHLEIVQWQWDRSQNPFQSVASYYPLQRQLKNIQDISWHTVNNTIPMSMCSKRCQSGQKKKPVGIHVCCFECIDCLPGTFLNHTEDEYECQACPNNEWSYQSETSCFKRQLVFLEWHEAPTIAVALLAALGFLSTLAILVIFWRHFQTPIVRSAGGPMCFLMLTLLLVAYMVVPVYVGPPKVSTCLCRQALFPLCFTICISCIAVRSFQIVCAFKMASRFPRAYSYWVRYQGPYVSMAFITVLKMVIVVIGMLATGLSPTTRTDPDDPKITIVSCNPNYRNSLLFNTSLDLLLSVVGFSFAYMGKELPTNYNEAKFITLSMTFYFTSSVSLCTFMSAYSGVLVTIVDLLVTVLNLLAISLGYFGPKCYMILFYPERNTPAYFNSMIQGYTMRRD
# Sequence (Q7RTX0 21-852): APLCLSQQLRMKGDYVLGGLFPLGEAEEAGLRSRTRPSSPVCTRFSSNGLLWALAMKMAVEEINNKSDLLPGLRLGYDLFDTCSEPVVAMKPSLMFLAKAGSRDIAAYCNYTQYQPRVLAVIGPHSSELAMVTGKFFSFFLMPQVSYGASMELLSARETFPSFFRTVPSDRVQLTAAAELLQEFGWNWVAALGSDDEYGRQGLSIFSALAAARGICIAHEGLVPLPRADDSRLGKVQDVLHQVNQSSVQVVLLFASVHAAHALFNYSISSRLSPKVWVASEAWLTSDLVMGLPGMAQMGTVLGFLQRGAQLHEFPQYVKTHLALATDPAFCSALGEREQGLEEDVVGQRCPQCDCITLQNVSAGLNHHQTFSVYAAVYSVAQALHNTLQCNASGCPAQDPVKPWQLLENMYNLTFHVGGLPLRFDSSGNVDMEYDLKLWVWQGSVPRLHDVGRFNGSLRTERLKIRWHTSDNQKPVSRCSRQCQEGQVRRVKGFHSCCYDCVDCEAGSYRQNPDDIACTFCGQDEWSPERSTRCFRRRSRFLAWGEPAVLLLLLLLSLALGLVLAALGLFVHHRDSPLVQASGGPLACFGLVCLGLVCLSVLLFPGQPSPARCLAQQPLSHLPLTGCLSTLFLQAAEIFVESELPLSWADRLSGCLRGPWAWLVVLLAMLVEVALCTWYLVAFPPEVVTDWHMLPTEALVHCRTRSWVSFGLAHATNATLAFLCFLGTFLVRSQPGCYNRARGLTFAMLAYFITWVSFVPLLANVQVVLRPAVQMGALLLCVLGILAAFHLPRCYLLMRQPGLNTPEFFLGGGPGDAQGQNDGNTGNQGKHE
# PROCEDURE_TEXT: HTRF IP1 accumulation
# CONDITION_CONTEXT: agonist; Galpha16gus44 co-transfected; 0.05 M LiCl, 5 min exposure
QUANTITY_NAME: EC50

Data request, read-out EC50, for OC[C@@H]1OC(O)[C@@H](O)[C@H](O)[C@H]1O (stereo partly shown) ~15 mM
